# System: NCI-H322M lung
# measurementProtocol: NCI-60 one-dose screen, 48 h
# conditionSet: 10 µM unless noted
The panel holds about 83,000 compounds, 20% with a hit somewhere; the sample as a whole holds those more often. Activity calls are given as the source filed them. How the source made its calls: active means growth percent below 10; inactive means the rest.
Output constraint: value belongs to active, inactive

molecule | systemName | qualitativeLabel
Cc1ccc(OCC(=O)Nc2ccc(Oc3ccccc3)cc2)c([N+](=O)[O-])n1 | NCI-H322M lung | inactive
CN1CCN(c2nc3scc(-c4ccccc4)c3c(=O)[nH]2)CC1 | NCI-H322M lung | inactive

Prompt: // param item: COC(=O)C1(NC(=O)CNC(=O)OCc2ccccc2)CCCC1 ; yields the recorded call
Response: inactive

Prompt: Dear all, I need the recorded test outcome for O=Cc1ccccc1C(=O)O , thank you.
Response: inactive

Prompt: Tell me the recorded outcome of this test for O=C(Nc1ccc(Cl)cc1)Nc1ccccc1CNc1nc(Nc2ccc(OCCN3CCCC3)cc2)ncc1Cl .
Response: inactive

Prompt: Recorded call for CCOC1Oc2ccccc2C(=O)/C1=N/c1nccs1 (stereo not drawn) ?
Response: inactive

Prompt: # fetch the recorded call for c1ccc(CN=C(NCc2ccccc2)NCc2ccccc2)cc1 here
Response: inactive

Where do these numbers come from? They come from PubChem BioAssay (NCI).
